B1: TPR t1 (parent)
chain: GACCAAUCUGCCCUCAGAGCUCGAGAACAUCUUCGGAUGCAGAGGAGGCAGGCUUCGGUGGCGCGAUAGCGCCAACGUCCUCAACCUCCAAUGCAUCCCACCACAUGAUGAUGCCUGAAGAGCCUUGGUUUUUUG

variants of: B1; assay: polymerase ribozyme fitness, log enrichment relative to wild type (log ratio); higher = more active; in vitro selection for triplet polymerase activity
Given measured polymerase ribozyme fitness (log ratio), output condition met if it is greater than or equal to -2 and condition not met if not.

In plain terms: is recorded polymerase ribozyme fitness (log ratio) at least -2 for U30C C49A C62A C115A ?
condition not met

In plain terms: is recorded polymerase ribozyme fitness (log ratio) at least -2 for A41G U54C G61C C104A ?
condition not met

In plain terms: is recorded polymerase ribozyme fitness (log ratio) at least -2 for C13U A46U C56A C85U ?
condition not met

In plain terms: is recorded polymerase ribozyme fitness (log ratio) at least -2 for U14C G93A G120C ?
condition met

In plain terms: is recorded polymerase ribozyme fitness (log ratio) at least -2 for G48A A83U C102A ?
condition not met

In plain terms: is recorded polymerase ribozyme fitness (log ratio) at least -2 for C56U A91U ?
condition met

In plain terms: is recorded polymerase ribozyme fitness (log ratio) at least -2 for G10C C49U C94U ?
condition met

In plain terms: is recorded polymerase ribozyme fitness (log ratio) at least -2 for G57C A100U U112C U125C ?
condition met

In plain terms: is recorded polymerase ribozyme fitness (log ratio) at least -2 for C79A C89A A118G ?
condition not met

In plain terms: is recorded polymerase ribozyme fitness (log ratio) at least -2 for C3U G47U A105G ?
condition not met

In plain terms: is recorded polymerase ribozyme fitness (log ratio) at least -2 for C12G G17A C62U C101U ?
condition not met
